- Test system: RXF 393 renal
- PROCEDURE SUMMARY: NCI-60 one-dose screen, 48 h (100 = growth as untreated, 0 = no growth, -100 = all killed)
- MEASUREMENT CONTEXT: 10 µM unless noted
About 83,000 compounds went through this panel and 20% of them were active in at least one assay; those are over-represented in the sample as a whole.
MEASURED QUANTITY: growth (%)
Enter your answer as a number in %; do not include the unit.

Use these answered entries as a reference point.
COMPOUND | MEASUREMENT UNITS | growth
CCOC(=O)c1sc(Nc2ccc(Cl)cc2)nc1C | % | 10.9
Cc1nc2ccccc2n1C(=O)C[C@@H]1NC(=S)NC1=O | % | 108
COC(=O)[C@]12CCC(C)(C)C[C@H]1[C@H]1C(=O)C[C@@H]3[C@@]4(C)c5c([nH]c6ccccc6c5=O)C(C)(C)[C@@H]4CC[C@@]3(C)[C@]1(C)CC2 | % | 65.7
N#Cc1c(-c2ccc(Cl)cc2)nc(NN=Cc2ccco2)nc1N1CCOCC1 | % | 52.2
C=CC(=O)Nc1cccc(-c2nc(SC)nc(NCCc3ccc(OC)c(OC)c3)c2C#N)c1 | % | 59.4
CC1SC(c2ccc(N(C)C)cc2)N(NC(=O)C(O)(c2ccccc2)c2ccccc2)C1=O (stereo not given) | % | 118
O=CNc1ccc2c(c1)Cc1cccc(NC=O)c1-2 | % | 103
CCCOc1ccc2nc(NC(=O)OC)[nH]c2c1 | % | 18.2
c1ccc(CCNc2ncnc3[nH]ncc23)cc1 | % | 93.2
O=C(C(=O)c1ccc2c(c1)OCO2)c1ccc2c(c1)OCO2 | % | 105

// query In one line, give reported growth of the entry COc1ccccc1Nc1nc(-c2cc3cccc(C(F)(F)F)c3oc2=O)cs1 .
// result 26.7

// query In one line, give reported growth of the entry COc1ccc(-c2nc3ccc(-c4nc5ccc(N6CCN(c7ccc(F)cc7)CC6)cc5[nH]4)cc3[nH]2)cc1OC .
// result 68.6

// query In one line, give reported growth of the entry O=C1Nc2cc(-c3ccc(O)cc3)ccc2/C1=C/c1ccc[nH]1 .
// result -27.3

###

- System: DU-145 prostate
- PROCEDURE SUMMARY: NCI-60 one-dose screen, 48 h
- MEASUREMENT CONTEXT: 10 µM unless noted
The panel holds about 83,000 compounds, 20% with a hit somewhere; the sample as a whole holds those more often. Activity calls are given as the source filed them. The calls were made as follows: active = growth percent below 10; inactive = the rest.
# valid calls are 1 (active), 0 (inactive); nothing else

Example entries begin here.
MOLECULE | TEST TARGET | ASSIGNED CLASS
CC1=C[C@H]2c3c(c(O)c(O)c4oc(-c5ccccc5)cc(=O)c34)[C@H](c3cc(O)c(O)c4oc(-c5ccccc5)cc(=O)c34)[C@H]2C(C)(C)C1 | DU-145 prostate | 1
COc1cc(Nc2cc(C)nc(N3CCN(c4ccnc5cc(Cl)ccc45)CC3)n2)cc(OC)c1 | DU-145 prostate | 1
CCOc1ccc(-n2nc(C(=O)Nc3cc(OC)c(OC)c(OC)c3)nc2-c2cc(OC)c(OC)c(OC)c2)cc1 | DU-145 prostate | 0
COc1cc(C)c(C2C(C#N)=C(N)Oc3n[nH]c(-c4cccs4)c32)cc1C(C)C (stereo not drawn) | DU-145 prostate | 0
COc1cccc(-c2nc(SCC(=O)Nc3ccc(C(=O)/C=C/c4ccc(OC)c(OC)c4)cc3)[nH]c(=O)c2C#N)c1 | DU-145 prostate | 0
CC[N+](CC)=c1sc2c(s1)C(c1ccc(Cl)cc1)Oc1ccc(Cl)cc1-2 (stereo not drawn) | DU-145 prostate | 0
COc1ccc(C(=O)/C=C/c2cccnc2Nc2cc(OC)c(OC)c(OC)c2)cc1 | DU-145 prostate | 0

// query Which outcome was entered for the molecule Cc1cc(C)nc(SC2=C(Nc3ccc(O)cc3)C(=O)N(Cc3ccccc3)C2=O)n1 in this test?
// result 0

###

- Test system: NCI/ADR-RES ovarian
- PROCEDURE SUMMARY: NCI-60 one-dose screen, 48 h
- MEASUREMENT CONTEXT: 10 µM unless noted
This is part of a sample that, as a whole, favours compounds with a hit. Of some 83,000 tested, about 20% had one in any assay. The source made the active and inactive calls. How the source made its calls: active means growth percent below 10; inactive means the rest.
# valid calls are class 1 = active, class 0 = inactive; nothing else

Example entries begin here.
COMPOUND | ASSIGNED CLASS
CCOc1cc2ncc(C#N)c(Nc3ccc(OCc4cccc(F)c4)c(Cl)c3)c2cc1NC(=O)CC1CCSS1 (stereo not given) | class 0
O=C(COc1cccc(/C=C2\COc3ccccc3C2=O)c1)Nc1nccs1 | class 0
COc1ccc(C2C(C#N)=C(N)Oc3n[nH]c(-c4cccs4)c32)cc1I (stereo not given) | class 0
CC(=O)NCC1c2c(n(C)c3c(Cl)c(Cl)ccc23)C(=O)NC1(C)C (stereo not given) | class 0
COc1ccc(CCNc2nc3c(c(=O)n(Cc4ccc(Br)cc4)c(=O)n3C)n2C)cc1OC | class 0
C=C1C(=O)O[C@H]2[C@H]1CC/C(COC(=O)NCCc1ccc(OC)c(OC)c1)=C\CC[C@@]1(C)O[C@@H]21 | class 0

// query Which outcome was entered for the compound OCc1ccc(N2CCc3cccc(F)c3C2)cc1Cl in this test?
// result class 0

// query Which outcome was entered for the compound NC(=O)c1cc(Cl)ccc1NC(=O)/C=C/c1ccccc1 in this test?
// result class 0

// query Which outcome was entered for the compound c1csc(C2=NN3C(C2)c2ccccc2OC3c2ccncc2)c1 (stereo not given) in this test?
// result class 0

// query Which outcome was entered for the compound NC(=NCCCOc1ccc(Cl)cc1)Nc1ccc(Cl)cc1 in this test?
// result class 0

// query Which outcome was entered for the compound CCCCN1CCCn2c1nc1c2c(=O)n(CCC)c(=O)n1CCC in this test?
// result class 0

###

- Test system: MDA-MB-435 melanoma
- PROCEDURE SUMMARY: NCI-60 one-dose screen, 48 h
- MEASUREMENT CONTEXT: 10 µM unless noted
About 83,000 compounds went through this panel and 20% of them were active in at least one assay; those are over-represented in the sample as a whole. Active and inactive are the calls of the source. Rule for the calls: active = growth percent below 10; inactive = the rest.
# valid calls are T (active), F (inactive); nothing else

// query Which outcome was entered for the molecule CCOC(=O)c1sc2nc(-c3cccc(O)c3)nc(N3CCOCC3)c2c1C in this test?
// result F

// query Which outcome was entered for the molecule Cn1c(NCCc2ccc(O)c(O)c2)nc2c1c(=O)n(Cc1ccc(Br)cc1)c(=O)n2C in this test?
// result F

// query Which outcome was entered for the molecule CCn1c(Cc2ccccc2Nc2c(Cl)cccc2Cl)nnc1SCC(=O)NN1C(=O)/C(=C/c2cc(OC)c(O)c(OC)c2)SC1=S in this test?
// result T

// query Which outcome was entered for the molecule COc1ccc(/C=C/C(=O)c2ccc(O)c(CN3CCN(c4cc5c(cc4F)c(=O)c(C(=O)O)cn5C4CC4)CC3)c2)cc1 in this test?
// result F

// query Which outcome was entered for the molecule O=C1c2ccccc2C(=O)c2c(N=Nc3[nH]c(=S)[nH]c3O)cccc21 in this test?
// result T

// query Which outcome was entered for the molecule O=C(O)c1ccc(N=CC(=O)c2ccc(-c3ccccc3)cc2)cc1 in this test?
// result F

// query Which outcome was entered for the molecule CCN1CCN(c2nc(NCCNc3ccnc4cc(Cl)ccc34)c3ccccc3n2)CC1 in this test?
// result T

// query Which outcome was entered for the molecule Cc1cc(C)nc(SC2=C(Nc3ccc(O)cc3)C(=O)N(Cc3ccccc3)C2=O)n1 in this test?
// result F

// query Which outcome was entered for the molecule COc1cc(/C=C/C(=O)c2cccnc2Nc2ccc(F)cc2)cc(OC)c1OC in this test?
// result F

###

- Test system: MALME-3M melanoma
- PROCEDURE SUMMARY: NCI-60 one-dose screen, 48 h (100 = growth as untreated, 0 = no growth, -100 = all killed)
- MEASUREMENT CONTEXT: 10 µM unless noted
- Procedure: Cells are grown in 96 well plates and exposed to the test compound for 48 hours. Compounds are tested at a single concentration, which is 10^-5 M for most compounds. The reported endpoint is percent growth (GI% or GIPRCNT), where numbers from 0 - 100% represent growth inhibition, and numbers from -100% - 0 represent cell death. For example, a value of 40 represents 60% growth inhibition. A value of 0 means no net growth occurred over the course of the experiment. […]
The panel holds about 83,000 compounds, 20% with a hit somewhere; the sample as a whole holds those more often.
MEASURED QUANTITY: growth (%)
Enter your answer as a number in %; do not include the unit.

// query In one line, give reported growth of the entry O=C1Nc2cc(-c3ccc(O)cc3)ccc2/C1=C/c1ccc[nH]1 .
// result 15.3

// query In one line, give reported growth of the entry Cc1cc(NS(=O)(=O)c2ccc(-c3cnc(C4CC4)o3)cc2)ccc1Cl .
// result 46.3

// query In one line, give reported growth of the entry NC(=O)c1cc(Br)ccc1NC(=O)/C=C/c1ccccc1 .
// result 96.5

// query In one line, give reported growth of the entry O=C1/C(=C/c2ccc3c(c2)OCO3)SC(=S)N1CCc1ccc(O)cc1 .
// result 89.5

// query In one line, give reported growth of the entry Cc1nc2ccccc2n1C(=O)C[C@@H]1NC(=S)NC1=O .
// result 83.8

// query In one line, give reported growth of the entry COc1cc2c(cc1-c1c(C)noc1C)ncc1nc(C3CCOCC3)n([C@H](C)COC(F)F)c12 .
// result 71.7

// query In one line, give reported growth of the entry CSc1nc(NCCN2CCOCC2)c(C#N)c(-c2cccc([N+](=O)[O-])c2)n1 .
// result 98.7

// query In one line, give reported growth of the entry CCCCCC(=O)Oc1ccc(/C(=C(\C)c2ccc(OC)cc2)c2ccc(OCCN3CCCCC3)cc2)cc1 .
// result 64.3

// query In one line, give reported growth of the entry Cc1nc(/N=C(\N)NC(=O)Nc2cccc([N+](=O)[O-])c2)sc1C .
// result 78.2

// query In one line, give reported growth of the entry COc1cc(/C=C/C(=O)Nc2cccnc2Nc2ccc(F)cc2)cc(OC)c1OC .
// result 110
